Molecular target: CHK1 kinase (Homo sapiens, UniProt O14757)
Construct: The kinase domain is expressed in baculovirus and purified by the GST tag; GST; made in house; host or cells: baculovirus system (insect cells implied)
Sequence (O14757 9-265 limits assumed): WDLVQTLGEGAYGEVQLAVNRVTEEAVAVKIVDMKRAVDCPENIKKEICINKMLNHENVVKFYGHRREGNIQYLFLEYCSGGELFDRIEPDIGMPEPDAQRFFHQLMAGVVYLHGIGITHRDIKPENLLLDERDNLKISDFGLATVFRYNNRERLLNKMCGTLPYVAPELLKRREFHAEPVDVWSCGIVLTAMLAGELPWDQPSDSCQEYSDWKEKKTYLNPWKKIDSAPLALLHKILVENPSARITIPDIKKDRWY
Experiment: Checkpoint Kinase 1 Assay (SPA)
Assay type: biochemical
Details: read-out: IC50 value in the Checkpoint Kinase 1 assay
MEASURED_PROPERTY: pIC50
Reminder that pIC50 means the negative base-10 logarithm of the concentration expressed in mol/L.

(Q) Reported pIC50 for CHK1 kinase (Homo sapiens, UniProt O14757), given NCCNc1ncc(C(N)=O)c2sc(-c3ccccc3)cc12 [Example 16] ?
(A) 6.26

----------
Molecular target: Pak4 (Homo sapiens, UniProt O96013)
Construct: The kinase domain of Pak4 (amino acids 291 to 591) is expressed in E. coli as a GST fusion; GST
Sequence (O96013 291-591): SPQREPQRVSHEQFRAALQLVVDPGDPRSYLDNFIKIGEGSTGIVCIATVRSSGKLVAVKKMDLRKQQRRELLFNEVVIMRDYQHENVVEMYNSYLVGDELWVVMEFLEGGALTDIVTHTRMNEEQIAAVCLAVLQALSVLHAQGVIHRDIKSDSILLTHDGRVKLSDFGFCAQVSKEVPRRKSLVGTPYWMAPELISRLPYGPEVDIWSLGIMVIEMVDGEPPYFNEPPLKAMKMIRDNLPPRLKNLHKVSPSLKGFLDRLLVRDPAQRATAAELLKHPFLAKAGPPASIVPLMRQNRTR
Assay: In Vitro Pak4 Enzyme Assay (SPA)
Settings: read-out: IC50 value in the Pak 4 enzyme assay
MEASURED_PROPERTY: IC50 (nM)
Numeric answer only, unit nM assumed.

(Q) Reported IC50 for Pak4 (Homo sapiens, UniProt O96013), given NC(=O)c1cnc(N[C@H]2CCCNC2)c2cc(-c3cc(F)cc(F)c3)sc12 ?
(A) 140

(Q) Reported IC50 for Pak4 (Homo sapiens, UniProt O96013), given NC(=O)c1cnc(N[C@H]2CCCNC2)c2cc(-c3ccc(Cl)cc3)sc12 ?
(A) 100
